Assay: BSK_3C_Proliferation: Cell Proliferation Assessment in the BioMAP Diversity Plus: 3C Assay (AID 2283006)
Conditions: primary human endothelial cells (HUVEC)
Activity calls are given as the source filed them. The calls were made as follows: active = hit-call score of the fitted dose curve at least 0.9, where 1 is the maximum; inactive = score below 0.9.
Please answer using one outcome listed in Yes = active, No = inactive

What classification did CCCCCOC(=O)COc1cc(N2C(=O)C3=C(CCCC3)C2=O)c(F)cc1Cl end up with in this test?
Yes

What classification did CCNc1nc(N)nc(Cl)n1 end up with in this test?
No

What classification did C#CCOC(=O)[C@@H](C)Oc1ccc(Oc2ncc(Cl)cc2F)cc1 end up with in this test?
No

What classification did CCSC(=O)N(CC(C)C)CC(C)C end up with in this test?
No

What classification did CCOC(=O)NCCOc1ccc(Oc2ccccc2)cc1 end up with in this test?
Yes

What classification did COC(=O)CSc1cc(N=c2sc(=O)n3n2CCCC3)c(F)cc1Cl end up with in this test?
No

What classification did CCCCOC(=O)C(C)Oc1ccc(Oc2ccc(C(F)(F)F)cn2)cc1 (centres undefined) end up with in this test?
No

What classification did CCOC(=O)C(C)Oc1ccc(Oc2cnc3cc(Cl)ccc3n2)cc1 (centres undefined) end up with in this test?
No

What classification did CCCCOC(=O)[C@@H](C)Oc1ccc(Oc2ccc(C(F)(F)F)cn2)cc1 end up with in this test?
No

What classification did CCOC(=O)C(C)Oc1ccc(Oc2nc3ccc(Cl)cc3o2)cc1 (centres undefined) end up with in this test?
No

What classification did O=C(O)C1(C(=O)Nc2ccc(Cl)cc2Cl)CC1 end up with in this test?
Yes

What classification did CCCCC(CC)CN1C(=O)C2C3C=CC(C3)C2C1=O (centres undefined) end up with in this test?
Yes

What classification did C[C@]12CC[C@@H]3c4ccc(O)cc4C[C@@H](CCCCCCCCCS(=O)CCCC(F)(F)C(F)(F)F)[C@H]3[C@@H]1CC[C@@H]2O (some centres undefined) end up with in this test?
Yes

What classification did O=C(c1ccccc1)C1CCCCC1 end up with in this test?
No

What classification did OB(O)O end up with in this test?
No

What classification did COc1nc(C)nc(NC(=O)NS(=O)(=O)c2ccccc2OCCCl)n1 end up with in this test?
No

What classification did N[C@@H](Cc1cc(I)c(Oc2ccc(O)c(I)c2)c(I)c1)C(=O)O end up with in this test?
No

What classification did COC(=O)c1ccc(CNS(C)(=O)=O)cc1S(=O)(=O)NC(=O)Nc1nc(OC)cc(OC)n1 end up with in this test?
No

What classification did COC(=O)c1ccccc1S(=O)(=O)NC(=O)Nc1nc(OC(F)F)cc(OC(F)F)n1 end up with in this test?
No

What classification did CCN(CC)C(=O)c1cccc(C)c1 end up with in this test?
No

What classification did O=C(Nc1ccc([N+](=O)[O-])cc1Cl)c1cc(Cl)ccc1O end up with in this test?
Yes

What classification did CCOC(=O)COc1cc(-n2ncc(C(F)(F)F)c(C)c2=O)c(F)cc1Cl end up with in this test?
No

What classification did Cc1nn(C)c(Oc2ccccc2)c1C=NOCc1ccc(C(=O)OC(C)(C)C)cc1 end up with in this test?
Yes

What classification did CCOC(=O)[C@H](C)Oc1ccc(Oc2nc3ccc(Cl)cc3o2)cc1 end up with in this test?
No
